src = the supplement of paper PMC12042874

assay: amyloid nucleation score (Sup35N fusion, yeast selection) (log enrichment); library NNK3; higher = more nucleation; inactive = no reads after selection;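 also: zero at mode of non-aggregating sequences after 7 days selection at 30°C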

- SUBSTANCE: "LRYASTSSFLVFQRDTLANE"
  amyloid nucleation score: "inactive"
- SUBSTANCE: "KRKRVK"
  amyloid nucleation score: "inactive"
- SUBSTANCE: "WSFCVSTREGSSNNFSRCGK"
  amyloid nucleation score: "inactive"
- SUBSTANCE: "FGYNWDCCRYMHDPRGLVTT"
  amyloid nucleation score: "inactive"
- SUBSTANCE: "QPPHKARGACYIRVFYRCTG"
  amyloid nucleation score: 0.226
- SUBSTANCE: "MTWNVGRADGFLRSSCSNFR"
  amyloid nucleation score: "inactive"
- SUBSTANCE: "LYVVVASMVGLDASRP"
  amyloid nucleation score: 0.266
- SUBSTANCE: "YVRDLGSWMT"
  amyloid nucleation score: "inactive"
- SUBSTANCE: "DWRQVYAYENSLWTVFSVWD"
  amyloid nucleation score: "inactive"

* * *

experiment: amyloid nucleation score (Sup35N fusion, yeast selection) (log enrichment); library NNK2; higher = more nucleation; inactive = no reads after selection
Classify by measured amyloid nucleation score: Met if it is equal to or exceeds -0.1, Not met if it is smaller.

- SUBSTANCE: "YTRGTNGLWLYRWVMVRGSN"
  LABEL VALUE: "Not met"
- SUBSTANCE: "GESNMVYCLYQGTILSFAGW"
  LABEL VALUE: "Met"
- SUBSTANCE: "STLVWSEIIF"
  LABEL VALUE: "Met"
- SUBSTANCE: "MCCPRSNFGYPFHVNLDMWG"
  LABEL VALUE: "Not met"
- SUBSTANCE: "SCDLYDTKSESFWLPSNMGS"
  LABEL VALUE: "Met"
- SUBSTANCE: "LCISIRD"
  LABEL VALUE: "Not met"
- SUBSTANCE: "LIPIRALRHYFRFIVCV"
  LABEL VALUE: "Not met"
- SUBSTANCE: "SRFCEH"
  LABEL VALUE: "Not met"
- SUBSTANCE: "LNLSWVCSLGRYFVGGYISF"
  LABEL VALUE: "Not met"
- SUBSTANCE: "FQYYDKYLYWFFVNN"
  LABEL VALUE: "Not met"
- SUBSTANCE: "SYYVLRASTELYGFHVFFLR"
  LABEL VALUE: "Met"
- SUBSTANCE: "FLDMSSRIMRARRPNCFFWC"
  LABEL VALUE: "Met"
- SUBSTANCE: "KGCVVFFRFSCNCSMICAWV"
  LABEL VALUE: "Not met"
- SUBSTANCE: "RYPFFEMVRSTMQSMIENQ"
  LABEL VALUE: "Met"
- SUBSTANCE: "ISLAINIAPLLLCTESTEWG"
  LABEL VALUE: "Not met"
- SUBSTANCE: "RKWLISHPFLRRRGLSSLVF"
  LABEL VALUE: "Met"

* * *

test: amyloid nucleation score (Sup35N fusion, yeast selection) (log enrichment); library NNK3; higher = more nucleation; inactive = no reads after selection

- SUBSTANCE: "GISPQC"
  amyloid nucleation score: "inactive"
- SUBSTANCE: "CSRLAQWFMLVSF"
  amyloid nucleation score: "inactive"
- SUBSTANCE: "FSLFLTLFHFFHTRLAACLL"
  amyloid nucleation score: "inactive"
- SUBSTANCE: "NLTYVMGSGWLLYQCVIM"
  amyloid nucleation score: 2.61
- SUBSTANCE: "RCSVVTSFQGICMACKYAGG"
  amyloid nucleation score: 1.26
- SUBSTANCE: "CKFCFSAIFSLLYNRIGAPQ"
  amyloid nucleation score: "inactive"
- SUBSTANCE: "VKNTGLSSNHLEH"
  amyloid nucleation score: 1.11
- SUBSTANCE: "LDAWRWMSLTADYGKSLVTR"
  amyloid nucleation score: "inactive"
- SUBSTANCE: "CENYRMGYRNVRVSFAPPFK"
  amyloid nucleation score: "inactive"
- SUBSTANCE: "IRRLSSVCMGCSWYL"
  amyloid nucleation score: "inactive"
- SUBSTANCE: "VLVSVGLVLWACCLRLQ"
  amyloid nucleation score: "inactive"
- SUBSTANCE: "YFNLITAYKVLSAHGRTLWR"
  amyloid nucleation score: "inactive"
- SUBSTANCE: "TAKGVKSDLECGCNVFRTEC"
  amyloid nucleation score: 0.457
- SUBSTANCE: "KWAWVGISCPRYRSRLGYFS"
  amyloid nucleation score: "inactive"
- SUBSTANCE: "RNKLFLINWLFYNCMTWAFH"
  amyloid nucleation score: "inactive"
- SUBSTANCE: "SRFDRVMQNDCCVYSCHIII"
  amyloid nucleation score: "inactive"
- SUBSTANCE: "ELGMQSNGSSNDRLERRRIR"
  amyloid nucleation score: "inactive"
- SUBSTANCE: "LCFRLDVSRMCTVSGNIGYC"
  amyloid nucleation score: 1.57
- SUBSTANCE: "DKGVVPL"
  amyloid nucleation score: "inactive"
- SUBSTANCE: "LWNFYSDCNGVPQDESLVEG"
  amyloid nucleation score: "inactive"
- SUBSTANCE: "TYLNTVRLKSGMMMNMKSTR"
  amyloid nucleation score: "inactive"
- SUBSTANCE: "RSNGPLFQVVITYCVSLPLN"
  amyloid nucleation score: "inactive"
- SUBSTANCE: "YLLKCYVMSDRSMSTCVQLE"
  amyloid nucleation score: "inactive"
- SUBSTANCE: "ANHLPWEAVWTPRWGYGCSP"
  amyloid nucleation score: "inactive"
- SUBSTANCE: "YCGWLCSSPPVQNV"
  amyloid nucleation score: "inactive"
- SUBSTANCE: "SMDWHAYLDRILLYVRSHS"
  amyloid nucleation score: "inactive"
- SUBSTANCE: "RLCLFLDPIY"
  amyloid nucleation score: "inactive"
- SUBSTANCE: "NFVPVYSLSRRAVLGHTGWC"
  amyloid nucleation score: "inactive"
- SUBSTANCE: "PKSYRSGSAVFLGFVSWYRW"
  amyloid nucleation score: "inactive"
- SUBSTANCE: "GLPNLASYSPPPINAKYIGD"
  amyloid nucleation score: "inactive"
- SUBSTANCE: "NWNSSHLNREYTRHFSGMMV"
  amyloid nucleation score: "inactive"
- SUBSTANCE: "MRSSIPIYVLMLIALSENSP"
  amyloid nucleation score: "inactive"
- SUBSTANCE: "HCYWLVGSWRYFTALFEGGL"
  amyloid nucleation score: "inactive"
- SUBSTANCE: "PFAEQRRL"
  amyloid nucleation score: "inactive"
- SUBSTANCE: "SFICVSSDLCARARVGDSSR"
  amyloid nucleation score: "inactive"
- SUBSTANCE: "IWKLHITLLSYRSILHVLHM"
  amyloid nucleation score: "inactive"
